- assayName: in vitro
- conditionContext: rat, gh3-tre-luc cells, AC50 (uM) modified / 1000, Tox21_110001=Tox21_300420; viability, 1 nM T3 present, 24 h
recordedMetric: CC50 at 24 h

[[record]]
smilesdata = "O=C(Nc1ccccc1)c1ccccc1I"
reading = "> 90 µM"


---

- Test system: GH3-TRE-Luc cell line
- conditionContext: read-out: AC50 (uM) modified / 1000; Tox21_110001=Tox21_300537; viability, 1 nM T3 present, 24 h
recordedMetric: CC50 (µM)

[[record]]
compound = "COC(=O)[C@H]1[C@H]2C[C@@H]3c4[nH]c5cc(OC)ccc5c4CCN3C[C@H]2C[C@@H](OC(=O)c2cc(OC)c(OC)c(OC)c2)[C@@H]1OC [Reserpine]"
reading = 75.5


---

- System: GH3-TRE-Luc cell line
- conditionContext: read-out: AC50 (uM) modified / 1000; Tox21_110001=Tox21_303556; viability, 1 nM T3 present, 24 h
recordedMetric: CC50

[[record]]
compound = "CCCCCCCCCCCCCC[P+](CCCC)(CCCC)CCCC [Tributyltetradecylphosphonium chloride]"
reading = "3.3 µM"


---

- Test system: GH3-TRE-Luc cell line
- conditionContext: read-out: AC50 (uM) modified / 1000; Tox21_110001=Tox21_303657; viability, 1 nM T3 present, 24 h
recordedMetric: CC50 (µM)

[[record]]
compound = "CC/C(=C(\\c1ccc(O)cc1)c1ccc(OCCN(C)C)cc1)c1ccccc1 [4-Hydroxytamoxifen]"
recordedmetric = "CC50"
resultunit = "µM"
reading = 2.62


---

- assayName: in vitro
- conditionContext: rat, gh3-tre-luc cells, AC50 (uM) modified / 1000, Tox21_110001=Tox21_201486; viability, 1 nM T3 present, 24 h
recordedMetric: CC50 at 24 h

[[record]]
compound = "Cn1c(-c2ccccc2)cc(-c2ccccc2)[n+]1C [Difenzoquat metilsulfate]"
reading = "> 90 µM"


---

- assayName: in vitro
- conditionContext: rat, gh3-tre-luc cells, AC50 (uM) modified / 1000, Tox21_110001=Tox21_202356; viability, 1 nM T3 present, 24 h
recordedMetric: CC50 at 24 h

[[record]]
molecule = "O=NN1CCCC1 [N-Nitrosopyrrolidine]"
reading = "> 100 µM"


---

- Test system: GH3-TRE-Luc cell line
- conditionContext: read-out: AC50 (uM) modified / 1000; Tox21_110001=Tox21_110182; viability, 1 nM T3 present, 24 h
recordedMetric: CC50

[[record]]
molecule = "Cc1oncc1C(=O)Nc1ccc(C(F)(F)F)cc1 [Leflunomide]"
reading = "9.39 µM"


---

- assayName: in vitro
- conditionContext: rat, gh3-tre-luc cells, AC50 (uM) modified / 1000
Where a name gives a salt, the structure may show the parent alone.
Measured CC50 at 24 h accompanies every entry in the list below.
recordedMetric: CC50 at 24 h

[[record]]
compound = "C=CCCCCCCCC"
recordedmetric = "CC50 at 24 h"
reading = "> 90 µM"

[[record]]
compound = "CCCCCCCCCCCCc1ccccc1"
recordedmetric = "CC50 at 24 h"
reading = "> 90 µM"

[[record]]
compound = "CC1CS(=O)(=O)CCN1/N=C/c1ccc([N+](=O)[O-])o1 (stereo not drawn)"
recordedmetric = "CC50 at 24 h"
reading = "8.46 µM"

[[record]]
compound = "CC(C)COC(=O)CCCCC(=O)OCC(C)C [Diisobutyl adipate]"
recordedmetric = "CC50 at 24 h"
reading = "> 90 µM"

[[record]]
compound = "C#C[C@]1(O)CC[C@H]2[C@@H]3CCC4=CC(=O)CC[C@@H]4[C@H]3C(=C)C[C@@]21CC"
recordedmetric = "CC50 at 24 h"
reading = "> 50 µM"

[[record]]
compound = "c1ccc(CN(Cc2ccccc2)Cc2ccccc2)cc1"
recordedmetric = "CC50 at 24 h"
reading = "> 90 µM"

[[record]]
compound = "Cl[C@@H]1OCCO[C@H]1Cl"
recordedmetric = "CC50 at 24 h"
reading = "> 90 µM"

[[record]]
compound = "COc1ccc(C(=O)Nc2ccccc2)cc1[N+](=O)[O-] [4-Methoxy-3-nitro-N-phenylbenzamide]"
recordedmetric = "CC50 at 24 h"
reading = "> 90 µM"

[[record]]
compound = "CC(=NO)C(C)=NO"
recordedmetric = "CC50 at 24 h"
reading = "> 90 µM"

[[record]]
compound = "CC1=CCC(C(C)C)=CC1"
recordedmetric = "CC50 at 24 h"
reading = "> 90 µM"

[[record]]
compound = "CC(C)(c1ccc(Oc2ccc3c(c2)C(=O)OC3=O)cc1)c1ccc(Oc2ccc3c(c2)C(=O)OC3=O)cc1"
recordedmetric = "CC50 at 24 h"
reading = "> 90 µM"

[[record]]
compound = "CN1C[C@H](C(=O)N[C@]2(C)O[C@@]3(O)[C@@H]4CCCN4C(=O)[C@H](Cc4ccccc4)N3C2=O)C[C@@H]2c3cccc4[nH]cc(c34)C[C@H]21 [Dihydroergotamine]"
recordedmetric = "CC50 at 24 h"
reading = "19.3 µM"

[[record]]
compound = "C1N2CN3CN1CN(C2)C3"
recordedmetric = "CC50 at 24 h"
reading = "> 50 µM"

[[record]]
compound = "C[C@@H]1CN(c2c(F)c(F)c3c(=O)c(C(=O)O)cn(C4CC4)c3c2F)C[C@H](C)N1"
recordedmetric = "CC50 at 24 h"
reading = "> 50 µM"

[[record]]
compound = "C[C@@H]1O[C@@H](O[C@@H]2[C@@H](O)[C@H](OCCc3ccc(O)c(O)c3)O[C@H](CO[C@@H]3O[C@H](CO)[C@@H](O)[C@H](O)[C@H]3O)[C@H]2OC(=O)/C=C/c2ccc(O)c(O)c2)[C@H](O)[C@H](O)[C@H]1O [Echinacoside]"
recordedmetric = "CC50 at 24 h"
reading = "> 90 µM"

[[record]]
compound = "C=CC(=O)NCOCC(C)C [N-(Isobutoxymethyl)acrylamide]"
recordedmetric = "CC50 at 24 h"
reading = "> 90 µM"

[[record]]
compound = "C[C@@H](O[C@H]1OCCN(Cc2n[nH]c(=O)[nH]2)[C@H]1c1ccc(F)cc1)c1cc(C(F)(F)F)cc(C(F)(F)F)c1 [Aprepitant]"
recordedmetric = "CC50 at 24 h"
reading = "11 µM"

[[record]]
compound = "COc1ccc(CN2CCNCC2)c(OC)c1OC [Trimetazidine dihydrochloride]"
recordedmetric = "CC50 at 24 h"
reading = "> 20 µM"

[[record]]
compound = "COc1ccccc1O"
recordedmetric = "CC50 at 24 h"
reading = "> 90 µM"

[[record]]
compound = "O=C=Nc1cccc(C(F)(F)F)c1 [3-(Trifluoromethyl)phenyl isocyanate]"
recordedmetric = "CC50 at 24 h"
reading = "49 µM"

[[record]]
compound = "CO[Si](C)(OC)OC"
recordedmetric = "CC50 at 24 h"
reading = "> 90 µM"

[[record]]
compound = "COC(=O)NN [Methyl carbazate]"
recordedmetric = "CC50 at 24 h"
reading = "> 90 µM"

[[record]]
compound = "c1ccc(CCNc2nc(-c3ccccc3)cs2)cc1"
recordedmetric = "CC50 at 24 h"
reading = "> 50 µM"

[[record]]
compound = "CN(C)CCCN(C)C"
recordedmetric = "CC50 at 24 h"
reading = "> 5 µM"

[[record]]
compound = "CN(C(=O)CN(CCO)CC(=O)N(C)C(C)(C)Cc1ccccc1)C(C)(C)Cc1ccccc1"
recordedmetric = "CC50 at 24 h"
reading = "16.2 µM"

[[record]]
compound = "O=C1OC(=O)C2CCCCC12 (stereo not drawn) [Hexahydrophthalic anhydride]"
recordedmetric = "CC50 at 24 h"
reading = "> 90 µM"

[[record]]
compound = "CC1=C(/C=C/C(C)=C/C=C/C(C)=C/C(=O)Oc2c(C)c(C)c3c(c2C)CC[C@@](C)(CCC[C@H](C)CCC[C@H](C)CCCC(C)C)O3)C(C)(C)CCC1"
recordedmetric = "CC50 at 24 h"
reading = "> 50 µM"

[[record]]
compound = "Cc1cc(=O)oc2cc(O)cc(O)c12 [5,7-Dihydroxy-4-methylcoumarin]"
recordedmetric = "CC50 at 24 h"
reading = "> 90 µM"

[[record]]
compound = "COc1cc(S(=O)(=O)Nc2ccccc2)c(OC)cc1N"
recordedmetric = "CC50 at 24 h"
reading = "> 90 µM"

[[record]]
compound = "O=C(NCN1CCOCC1)c1cnccn1 [Morphazinamide]"
recordedmetric = "CC50 at 24 h"
reading = "> 50 µM"

[[record]]
compound = "CCC(=O)O[C@H]1CC[C@H]2[C@@H]3CCc4cc(O)ccc4[C@H]3CC[C@]12C [beta-Estradiol 17-propionate]"
recordedmetric = "CC50 at 24 h"
reading = "26.8 µM"

[[record]]
compound = "Clc1ccc(C(Cl)(Cl)Cl)cn1"
recordedmetric = "CC50 at 24 h"
reading = "> 90 µM"

[[record]]
compound = "CN1CCCC(n2nc(Cc3ccc(Cl)cc3)c3ccccc3c2=O)CC1 (stereo not drawn) [Azelastine hydrochloride]"
recordedmetric = "CC50 at 24 h"
reading = "12.6 µM"

[[record]]
compound = "Brc1ccc(Br)c(Br)c1"
recordedmetric = "CC50 at 24 h"
reading = "> 90 µM"

[[record]]
compound = "CCOC(=O)C1OC1c1ccccc1 (stereo not drawn) [Ethyl 3-phenylglycidate]"
recordedmetric = "CC50 at 24 h"
reading = "> 90 µM"

[[record]]
compound = "CC(=O)CCC(=O)O"
recordedmetric = "CC50 at 24 h"
reading = "> 100 µM"

